molecular target: AChE (from drosophila) (Drosophila melanogaster, UniProt P07140); construct: purchased Jing Peng Bio-Pesticide Co., Ltd. Shandong, P. R. China; experiment: In vitro AChE inhibitory activity (Acetylcholinesterase Detection Kit); type: biochemical
metric.name: pIC50
pIC50 here: minus log base 10 of the concentration, concentration in moles per litre.

Sure, the documented pIC50 for COc1ccccc1C=CCO[C@@H]1O[C@H](CO)[C@@H](O)[C@H](O)[C@H]1O [Compound 10b, 2-Methoxycinnamyl β-D-glucopyranoside] is 4.81

* * *

Item-by-item account of IC50
biological target: AChE (from drosophila) (Drosophila melanogaster, UniProt P07140); construct: purchased Jing Peng Bio-Pesticide Co., Ltd. Shandong, P. R. China; assay: In vitro AChE inhibitory activity (Acetylcholinesterase Detection Kit); type: biochemical; conditions: seven concentrations; mean ± SD of triplicate independent experiments; – = not active; read-out: AChE inhibitory activitiy IC50
Enter your answer as a number in µM; do not include the unit.

Sure, the documented IC50 for O[C@@H]1[C@@H](O)[C@H](OC/C=C/c2ccccc2)O[C@H](CO[C@@H]2OC[C@H](O)[C@H](O)[C@H]2O)[C@H]1O is 1.72

Sure, the documented IC50 for C[C@@H]1O[C@@H](OC[C@H]2O[C@@H](OCC=Cc3ccccc3)[C@H](O)[C@@H](O)[C@@H]2O)[C@H](O)[C@H](O)[C@H]1O is 2.05

Sure, the documented IC50 for COc1ccc(C=CCO[C@@H]2O[C@H](CO[C@@H]3OC[C@H](O)[C@H](O)[C@H]3O)[C@@H](O)[C@H](O)[C@H]2O)cc1 is 4.23

Sure, the documented IC50 for OC[C@H]1O[C@@H](OCC=Cc2ccc(O)cc2)[C@H](O)[C@@H](O)[C@@H]1O [Compound 16a, 4-Hydroxycinnamyl β-D-glucopyranoside] is 75.2

Sure, the documented IC50 for COc1ccc(C=CCO[C@@H]2O[C@H](CO)[C@@H](O)[C@H](O)[C@H]2O)cc1OC [Compound 10d] is 43.5

Sure, the documented IC50 for OC[C@H]1O[C@@H](OCC=Cc2ccc(F)c(F)c2)[C@H](O)[C@@H](O)[C@@H]1O [Compound 10k, 3,4-Difluorocinnamyl β-D-glucopyranoside] is 35.5
